The values you see were collected from patent US20050026827A1.

Exercise: for every item that follows, state its recorded IC50.
# test-system: 3T3 fibroblast bombesin receptors (murine (3T3 murine fibroblasts), UniProt P21729)
# protocol-text: inhibition of [125I]GRP binding to 3T3 cell membranes
Non-standard residues stand in square brackets, D forms with d. No end group written: not given here. Sta = CC(C)C[C@H](N)[C@@H](O)CC(=O)O; pGlu = O=C1CC[C@@H](C(=O)O)N1
One number for each entry, in nM.

Please review the entries below; each comes with its answer.
GNHWAVGHLL-NH2 (also: reduced bond ψ[CH2NH] between Leu9 and Leu10) [BIM-26092, Gly-Asn-His-Trp-Ala-Val-Gly-His-Leuψ[CH2NH]Leu-NH2 (Neuromedin C analog)]    242
[pGlu]QWAVGHLL-NH2 (also: reduced bond ψ[CH2NH] between Leu8 and Leu9) [BIM-26101, pGlu-Gln-Trp-Ala-Val-Gly-His-Leuψ[CH2NH]Leu-NH2 (Litorin analog)]    118
FQWAVGHL (D-Phe at 1; C-terminal amide) [BIM-26122, D-Phe-Gln-Trp-Ala-Val-Gly-His-Leu-NH2 (Litorin analog)]    5.9
[pGlu]QWAVGH[Sta]-NH2 (SMILES CC(C)C[C@H](NC(=O)[C@H](Cc1c[nH]cn1)NC(=O)CNC(=O)[C@@H](NC(=O)[C@H](C)NC(=O)[C@H](Cc1c[nH]c2ccccc12)NC(=O)[C@H](CCC(N)=O)NC(=O)[C@@H]1CCC(=O)N1)C(C)C)[C@@H](O)CC(N)=O) [BIM-26120, pGlu-Gln-Trp-Ala-Val-Gly-His-Sta-NH2 (Litorin analog)]    150

# ---- query binder ----
## Input What value of IC50 has been recorded for this entry: EQWAVGHFL (pGlu at 1 (written E); reduced peptide bond ψ[CH2NH] between Phe 8 and Leu 9; C-terminal amide) [BIM-26100, pGlu-Gln-Trp-Ala-Val-Gly-His-Pheψ[CH2NH]Leu-NH2 (Litorin analog)]
## Output 23
